Cited source: paper PMC8587515

- Test system: HT-29 (human colon adenocarcinoma)
- ASSAY NOTES: MTT cytotoxic activity assay, HT-29
- Type: cell-based
- EXPERIMENTAL CONTEXT: 72 h, mean ± SEM of three replicates
# maps each entry to its IC50
Number in µM, nothing else.

COc1cccc2c1C(=O)c1c(O)c3c(c(O)c1C2=O)C[C@@](O)(C(=O)CO)C[C@@H]3O[C@H]1C[C@H](N)[C@H](O)[C@H](C)O1 [Doxorubicin, reference compound]; 0.59

Now take the following compound into account.
Query block: Return reported IC50 for target or system HT-29 (human colon adenocarcinoma), item C[C@H]1Oc2c(c(O)c3c(=O)c4ccc(O)c(O)c4oc3c2CCC(C)(C)O)C1(C)C [Compound 4, gerontoxanthone C hydrate] .
Result block: 20.3

----------
# maps each entry to its IC50 at 16 h
- ASSAY NOTES: Cytotoxicity (XTT cell viability), RAW 264.7
- Type: cell-based
- EXPERIMENTAL CONTEXT: mouse, RAW 264.7 macrophage cells, LPS/IFN-γ-stimulated, LPS-IFN-γ-induced cells, mean ± SEM (n = 6)

These solved cases illustrate the format of a correct answer.
C[C@@H]1Oc2cc(O)c3c(=O)c4ccc(O)c(O)c4oc3c2C1(C)C; 85.6 µM
C[C@H]1Oc2c(c(O)c3c(=O)c4ccc(O)c(O)c4oc3c2CCC(C)(C)O)C1(C)C [Compound 4, gerontoxanthone C hydrate]; > 200 µM

Query block: Tell me IC50 at 16 h reported for CC1(C)c2c(cc3oc4ccc(O)c(O)c4c(=O)c3c2O)O[C@@H]1CO [Compound 5, 3′-hydroxycalothorexanthone]
Result block: > 200 µM

----------
- TESTED ON: COX-1 (purified PGHS-1 from ram seminal vesicles) (Ovis aries)
- Construct: Purified PGHS-1 from ram seminal vesicles for COX-1; purchased Cayman Chemical Co., Ann Arbor, MI, USA; host or cells: ram seminal vesicles (tissue-purified)
- Sequence (P05979 25-600): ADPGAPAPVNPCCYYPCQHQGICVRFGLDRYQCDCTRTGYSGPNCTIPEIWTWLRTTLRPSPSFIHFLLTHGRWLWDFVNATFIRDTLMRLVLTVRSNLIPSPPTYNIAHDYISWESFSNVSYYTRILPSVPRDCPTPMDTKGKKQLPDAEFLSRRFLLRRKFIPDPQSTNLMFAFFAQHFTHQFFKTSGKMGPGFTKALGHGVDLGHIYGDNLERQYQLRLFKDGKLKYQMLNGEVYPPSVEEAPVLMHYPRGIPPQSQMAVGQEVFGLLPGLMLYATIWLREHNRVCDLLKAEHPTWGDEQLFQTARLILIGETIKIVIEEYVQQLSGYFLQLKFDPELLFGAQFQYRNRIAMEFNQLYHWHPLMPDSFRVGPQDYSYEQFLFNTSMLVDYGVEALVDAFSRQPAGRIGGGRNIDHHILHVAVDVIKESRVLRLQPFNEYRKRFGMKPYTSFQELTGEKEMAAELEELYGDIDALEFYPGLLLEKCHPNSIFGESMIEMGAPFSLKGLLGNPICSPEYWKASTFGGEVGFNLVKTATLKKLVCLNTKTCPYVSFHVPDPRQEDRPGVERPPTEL
- ASSAY NOTES: COX-1 enzyme inhibition assay (PGE2 ELISA)
- Type: biochemical
- EXPERIMENTAL CONTEXT: mean ± SD (n = 4)
Rule: inhibition at 20 µM under 20% gives not satisfied, otherwise satisfied.

Field: example entries. Status: answers known.
C[C@@H]1Oc2cc(O)c3c(=O)c4cccc(O)c4oc3c2C1(C)C [Compound 6, pancixanthone B]; satisfied
COc1c(O)cc2c(c1O)C(=O)O[C@@H](c1ccccc1)C2 [Compound 2, (−)-annulatomarin]; not satisfied
C[C@@H]1Oc2cc(O)c3c(=O)c4ccc(O)c(O)c4oc3c2C1(C)C [Compound 7, 2-deprenylrheediaxanthone B]; not satisfied

Query block: Determine whether this compound has inhibition at 20 µM no lower than 20%: O=c1c2cccc(O)c2oc2ccc(O)c(O)c12 [Compound 9, 1,2,5-trihydroxyxanthone]
Result block: satisfied

Query block: Determine whether this compound has inhibition at 20 µM no lower than 20%: CC(C)=CCc1c2c(c3oc4c(O)c(O)ccc4c(=O)c3c1O)C(C)(C)[C@H](C)O2 [Compound 8, formoxanthone C]
Result block: satisfied

Query block: Determine whether this compound has inhibition at 20 µM no lower than 20%: COc1c(O)cc2c(c1O)C(=O)O[C@@H](c1ccccc1O)C2 [Compound 3, 2′-hydroxyannulatomarin]
Result block: satisfied

Query block: Determine whether this compound has inhibition at 20 µM no lower than 20%: COc1cc(O)c2c(=O)c3ccc(O)c(OC)c3oc2c1 [Compound 14, 1,6-dihydroxy-3,5-dimethoxyxanthone]
Result block: not satisfied

Query block: Determine whether this compound has inhibition at 20 µM no lower than 20%: C[C@H]1Oc2c(c(O)c3c(=O)c4ccc(O)c(O)c4oc3c2CCC(C)(C)O)C1(C)C [Compound 4, gerontoxanthone C hydrate]
Result block: satisfied
